# Assay method text: protein stability index of a GFP-peptide fusion (yeast GPS) (PSI 1-4); higher = more stable; sorted into four equal gates, so the index is relative within each strain
# Condition parameters: doa10∆
Reported property: protein stability index

Example entries begin here.
LYSYLIKENFFERIMIL [YJL039C/NUP192] :: 1.48
IRQAIAKGLVAYHQKYV [RPS16A] :: 1.21
AAMVPFIKFKLIQQVPP [CDC53] :: 2.12
AASLGDMVMATVKKGKP [RPL23A] :: 2.6
PLSTYNKNGNAVCSTAT [PGD1] :: 2.37
DGFDPRGNIKVMFATNR [RPT1] :: 3.25
EEVVSNDEGVWDLVDER [PRP8] :: 3.56
TMETKTLPEKKQFDSIF [SIR4] :: 2.44

Let us move to another entry and its protein stability index.
# lookup: protein stability index of SMSEEFKYVSVRYEEKR [BRR2]
3.41
